Test system: HOP-62
Experiment: NCI tumour cell line growth inhibition, 48 h
Active and inactive are the calls of the source. Rule as the data show it: active = GI50 up to about 1.1 µM and inactive = higher.
Outcome codes: active, inactive

Sc1ccccc1S :: inactive
O=C1N=CN=C2C=CC(Cl)=C(I)C12 (stereo not given) :: inactive
OCCN1c2ccccc2Sc2ccccc21 :: inactive
NC(=O)c1cc([N+](=O)[O-])cc([N+](=O)[O-])c1 [NITROMIDE] :: inactive
CC1CNC(c2cccc(-c3nc(-c4cccc(C5=NC(C)CN5)c4)nc(N(C)C)n3)c2)=N1 (stereo not given) :: active

----------
Tested on: LOX IMVI
Test: NCI tumour cell line growth inhibition, 48 h
Structures can show the parent of a compound that is named as a salt. The source made the active and inactive calls. No stated cut-off is given here; in the data, active = GI50 up to about 1.1 µM and inactive = higher.
endpoint label: GI50

C=C(C)C1CCC(C(=O)O)CC1 (stereo unspecified) :: > 100 µM (inactive)
COc1cccc2c1C(=O)c1c(O)c3c(c(O)c1C2=O)CC(O)(C(C)=O)CC3OC1CC([N+](C)(C)C)C(O)C(C)O1 (stereo unspecified) :: 51.9 µM (inactive)
CC(CN1c2ccccc2Sc2ccccc21)N(C)C (stereo unspecified) [PROMETHAZINE HYDROCHLORIDE] :: 18.9 µM (inactive)
Cc1ccc2c(c1)C(=O)C1(C2)Cc2ccc(C)cc2C1=O :: > 100 µM (inactive)
CN1C(=S)CSc2ccccc21 :: > 100 µM (inactive)
CC(=O)O[C@H]1CCC2[C@@H]3CCC4=C(O)C(=O)C(C#N)C[C@]4(C)C3CC[C@@]21C (stereo partly specified) :: 18.9 µM (inactive)
Cc1ccc(OCC2CO2)c(Br)c1 (stereo unspecified) :: 12.1 µM (inactive)
O=C(O)Cc1ccc(Nc2nc3ccccc3nc2C(=O)O)cc1 :: > 100 µM (inactive)
CC(C)CC1[C@@H](OCc2ccccc2)COS(=O)(=O)N1Cc1ccccc1 (stereo partly specified) :: > 100 µM (inactive)
COc1ccc(/C=C/c2cc(O)cc(OC3OC(CO)C(O)C(O)C3O)c2)cc1O (stereo unspecified) :: > 100 µM (inactive)
N=C(N)NS(=O)(=O)c1ccc(NCc2c3ccccc3nc3ccccc23)cc1 :: 0.946 µM (active)
CCOC(=O)C1S/C(=N\c2ccc(Cl)cc2Cl)N=C1C (stereo unspecified) :: 74.5 µM (inactive)
Sc1ccccc1S :: > 100 µM (inactive)
O=C(CCCN1CCC(O)(c2ccc(Cl)cc2)CC1)c1ccc(F)cc1 :: 18 µM (inactive)
CCOC(=O)C1(C#N)C(c2ccccc2)CC(O)(c2ccc(Cl)cc2)C(C(=O)c2ccc(Cl)cc2)C1c1ccccc1 (stereo unspecified) :: > 100 µM (inactive)
Oc1c(N2CCOCC2)cc(-c2cc(N3CCOCC3)c(O)c3ccccc23)c2ccccc12 :: 1.77 µM (inactive)
Cc1c2ccncc2c(C)c2c1[nH]c1ccccc12 :: 0.536 µM (active)
CC1(C)CC(=O)c2c(nc3c4c([nH]c(-c5ccc([N+](=O)[O-])cc5)c24)CC(C)(C)C3)C1 :: 31.3 µM (inactive)
COS(=O)CCOC(=O)c1ccccc1SSc1ccccc1C(=O)OCCS(=O)OC (stereo unspecified) :: 22.2 µM (inactive)
NC1C(O)C(O)C(CO)OC1n1cc(F)c(=O)[nH]c1=O (stereo unspecified) :: > 100 µM (inactive)
CCn1c(=O)c(C(=O)O)c(Cl)c2cc3c(cc21)OCO3 :: > 100 µM (inactive)
Cc1c(CCO)c(O)n2c(nc3ccccc32)c1C#N :: 68.7 µM (inactive)
CN(C)c1nc(-c2ccccc2)c(C(=O)c2c[nH]c3ccccc23)s1 :: 6.49 µM (inactive)
O=[N+]([O-])c1nccn1CCCNc1ccnc2cc(Cl)ccc12 :: 4.63 µM (inactive)
CC(=O)OCCOCn1cnc2c(Cl)nc(Cl)nc21 :: 4.3 µM (inactive)
O=C1Cc2c([nH]c3cc(Br)ccc23)-c2ccccc2N1 :: 2.9 µM (inactive)
